Target: Guanidinoacetate N-methyltransferase (Homo sapiens) (UniProt Q14353)
Experiment: Confirmatory Screen for Target Class Profiling of Small Molecule Inhibitors of Methyltransferases (AID 1745852)
Settings: MTase-Glo luminescence, SAH detection, recombinant enzyme; series mostly up to 57.3 µM
Calls of active or inactive are those of the source. Calls follow the shape of the full dose curve.
Possible outcomes: active, inactive

{"givenSmiles": "CC(C)(O)C(=O)N1CCN(c2ccc(C(F)(F)F)c(C3=C(c4c[nH]c5ccccc45)C(=O)NC3=O)c2)CC1", "labelClass": "active"}
{"givenSmiles": "Cc1nnc(C[C@@H]2C=C(c3ccc(Cl)cc3)c3ccccc3-n3c(C)nnc32)o1", "labelClass": "inactive"}
{"givenSmiles": "CC(C)C[C@H](C(=O)O)c1cc(-c2ccc(C(F)(F)F)cc2)cc(-c2ccc(C(F)(F)F)cc2)c1", "labelClass": "active"}
{"givenSmiles": "COc1cccc(-c2cn(-c3ccc(CCN4CCC(O)CC4)cc3)c3ncnc(N)c23)c1", "labelClass": "active"}
{"givenSmiles": "O=S(=O)(Nc1cc(Cl)c(Oc2cnc3ccccc3c2)c(Cl)c1)c1ccc(Cl)cc1Cl", "labelClass": "active"}

----------
Target: Cytochrome P450 2D6 (Homo sapiens)
Assay: Cytochrome P450 family 2 subfamily D member 6 (CYP2D6) small molecule antagonists: luciferase biochemical (cell-free) qHTS assay (AID 1645840); also: nearly all actives have a fitted effect of over 55% in size; also: potency is read from the fitted curve at half-maximal effect
Details: P450-Glo CYP2D6 enzyme, luciferin luminescence, 1 h; series mostly up to 57.4 µM
Results filed as inconclusive are left out. Active and inactive are the calls of the source. The call rests on the fitted dose curve; in most records, active means well fitted inhibition curve with a large enough effect in the repeat runs; inconclusive means weak or mixed curves; inactive means flat fitted curve, though single readings scatter.

{"compound": "CCCCNc1ncc2c(-c3ccc(S(=O)(=O)N4CCOCC4)cc3)nn(C3CCC(O)CC3)c2n1 (stereo not given)", "Potency": "inactive"}
{"compound": "Cc1ccc(C(=O)Nc2ccc(CN3CCN(C)CC3)c(C(F)(F)F)c2)cc1C#Cc1cnc2[nH]ncc2c1", "Potency": "16.9 µM (active)"}
{"compound": "O=C(Nc1nc2ccc([N+](=O)[O-])cc2s1)C1CCCCC1", "Potency": "1.9 µM (active)"}
{"compound": "CCCC(CCC)C(=O)Nc1ccn([C@@H]2O[C@H](CO)[C@@H](O)C2(F)F)c(=O)n1", "Potency": "inactive"}
{"compound": "O=S(=O)(N[C@H]1CCCC[C@@H]1N1CCOCC1)c1ccc(Cl)cc1", "Potency": "5.35 µM (active)"}

----------
Test system: Zika virus NS2B-NS3 protease (linked construct)
Test: Primary screen NINDS Rhodamine qHTS for Zika virus inhibitors (AID 1347160); also: nearly all actives have a fitted effect of over 55% in size
Conditions: purified NS2B-NS3 protease, Rhodamine110 substrate fluorescence; series mostly up to 57.1 µM
Results filed as inconclusive are left out. Active and inactive are the calls of the source. Calls come from the whole dose curve; as a rule, active = well fitted inhibition curve with a large enough effect; inconclusive = small, poorly fitted or top-dose-only effect; inactive = no such curve, though single readings can be large or run the other way.
Possible outcomes: active, inactive

{"molecule": "C[C@H]1CO[C@@H]2Cn3cc(C(=O)NCc4ccc(F)cc4F)c(=O)c(O)c3C(=O)N12", "labelClass": "inactive"}
{"molecule": "COCCNCc1ccc(-c2cc3nccc(Oc4ccc(NC(=O)C5(C(=O)Nc6ccc(F)cc6)CC5)cc4F)c3s2)nc1", "labelClass": "inactive"}
{"molecule": "Fc1ccc(-c2nc(-c3ccccc3F)[nH]c2-c2ccncc2)cc1", "labelClass": "inactive"}
{"molecule": "N#CSc1cc(SC#N)c(N)nc1N", "labelClass": "inactive"}
{"molecule": "CNC(=O)c1cc(Oc2ccc(NC(=O)c3cccc(C(F)(F)F)c3)cc2)ccn1", "labelClass": "inactive"}
{"molecule": "CC1(C)CC[C@]2(C(=O)O)CC[C@]3(C)C(=CCC4[C@@]5(C)C[C@@H](O)[C@H](O)[C@@](C)(CO)C5CC[C@]43C)[C@@H]2[C@@H]1O (stereo partly drawn)", "labelClass": "inactive"}
{"molecule": "O=C(Nc1ccccc1Cl)c1cnc2ccc(C3CCNCC3)cn12", "labelClass": "inactive"}
{"molecule": "COc1cc(/C=N\\NC(=O)c2ccc3c(c2)OCO3)ccc1OCc1ccccc1", "labelClass": "inactive"}
{"molecule": "C[C@@H]1C[C@H]2O[C@@]3(O[C@@H]2C(C)(C)O)C(O)[C@@]2(C)C4CCC5C(C)(C)[C@@H](O[C@H]6OC[C@H](O)[C@@H](O)[C@@H]6O)CC[C@@]56C[C@@]46CC[C@]2(C)C13 (stereo partly drawn)", "labelClass": "inactive"}
{"molecule": "O=C(COc1ccc2ccccc2c1Br)Nc1cccnc1", "labelClass": "inactive"}
{"molecule": "CCOc1cccc(NC(=O)c2ccc(N3CCCC3)c(C(F)(F)F)c2)c1", "labelClass": "inactive"}
{"molecule": "CC(=O)O[C@@H]1CC[C@@]2(C)C(CC[C@]3(C)C2[C@H](O)C=C2[C@H]4[C@@H](C)[C@H](C)CC[C@]4(C)CC[C@]23C)[C@@]1(C)C(=O)O (stereo partly drawn)", "labelClass": "active"}
{"molecule": "C=C1CC[C@@H]2[C@](C)(CO)[C@H](O)CC[C@@]2(C)[C@@H]1C/C=C1/C(=O)OCC1O (stereo partly drawn)", "labelClass": "inactive"}
{"molecule": "COC(=O)c1sccc1S(=O)(=O)Nc1ccc(Nc2ccccc2)cc1OC", "labelClass": "inactive"}
{"molecule": "C[C@H](Nc1cc2c(-c3ccc4c(c3)OCO4)noc2cn1)c1ccccc1", "labelClass": "inactive"}
{"molecule": "O=C(NCCN1CCN(c2cccc3c2OCCO3)CC1)c1ccc(F)cc1", "labelClass": "inactive"}
{"molecule": "CC(C)(C)OC(=O)c1ncn2c1C(C)(C)Nc1ccccc1-2", "labelClass": "inactive"}
{"molecule": "O=C(N[C@@H]1CCCc2c1cnn2-c1ccc(F)cc1F)c1ccccn1", "labelClass": "inactive"}

----------
Tested on: NIH3T3
Test: Cytotoxic Profiling of Annotated Libraries Using Quantitative High-Throughput Screening (AID 1296008); also: nearly all actives have a fitted effect of over 60% in size
Details: Five cell lines viability, CellTiter-Glo ATP luminescence, 48-72 h
Inconclusive results are not listed. Activity calls are given as the source filed them. Calls come from the whole dose curve; as a rule, active = well fitted inhibition curve with a large enough effect; inconclusive = small, poorly fitted or top-dose-only effect; inactive = flat fitted curve, though single readings scatter.
Classes used: true = active, false = inactive

{"molecule": "O=C1Cc2c([nH]c3ccc(Br)cc23)-c2ncccc2N1", "labelClass": "false"}
{"molecule": "C=C1C(=O)O[C@@H]2C3=C(C)CCC[C@]3(C)CC[C@@]12O", "labelClass": "true"}
{"molecule": "CN(C)S(=O)(=O)c1ccc(NC(=S)N2CCC(C(O)(c3ccccc3)c3ccccc3)CC2)cc1", "labelClass": "false"}
{"molecule": "NC(=O)c1cccc2[nH]c(-c3ccc(C4CCCN4)cc3F)nc12 (stereo not given)", "labelClass": "false"}
{"molecule": "Cc1nnc(-c2ccc(-c3ccc(C(=O)Nc4ccc(O)c(N5CCN(C)CC5)c4)cc3)c(C)c2)o1", "labelClass": "false"}
{"molecule": "O=S(=O)(NCc1cccc2ccccc12)c1cc(Cl)c(Oc2cccc(N3CCNCC3)c2)s1", "labelClass": "true"}
{"molecule": "Nc1nc(Cl)nc2c1ncn2C1OC(CO)C(O)C1F (stereo not given)", "labelClass": "true"}
{"molecule": "CCCNCCc1ccc(NS(=O)(=O)c2ccc(OC(F)(F)F)cc2)cc1", "labelClass": "false"}
{"molecule": "O=C([C@@H](Cc1cccc(C(F)(F)F)c1)NS(=O)(=O)c1cc(F)c2c(c1)CCNC2)N1CCCC1", "labelClass": "false"}
{"molecule": "Nc1nc2c(nc(Br)n2[C@@H]2O[C@@H]3COP(=O)(O)O[C@H]3[C@H]2O)c(=O)[nH]1", "labelClass": "false"}

----------
Tested on: Es-2
Experiment: Primary qHTS to identify gynecologic anti-cancer compounds using libraries of approved drugs and bioactive compounds (AID 1345084); also: nearly all actives have a fitted effect of over 55% in size
Conditions: Gynecologic cancer cell panel viability, ATPlite luminescence, 48 h; series mostly up to 57.5 µM
Records with an inconclusive call do not appear. Active and inactive are the calls of the source. The call rests on the fitted dose curve; in most records, active means well fitted cell-killing curve with a large enough effect; inconclusive means small, poorly fitted or top-dose-only effect, or effect the other way; inactive means flat fitted curve, though single readings scatter.
Labels: active, inactive

{"compound": "COc1ccncc1C(=O)NC(=O)Nc1ccc(-c2ccccc2)c(C(F)(F)F)c1", "labelClass": "inactive"}
{"compound": "CCO[C@H]1CN(C2CCC(O)(c3ccc4c(c3)OCO4)CC2)C[C@@H]1NC(=O)CNC(=O)c1cccc(C(F)(F)F)c1 (stereo partly drawn)", "labelClass": "inactive"}
{"compound": "CC(C)(CO)c1cc2cc(NC(=O)C3(c4ccc5c(c4)OC(F)(F)O5)CC3)c(F)cc2n1CC(O)CO (stereo not drawn)", "labelClass": "inactive"}
{"compound": "O=C(NS(=O)(=O)c1ccc(Br)s1)c1ccc(Cl)cc1Cl", "labelClass": "inactive"}
{"compound": "COC(=O)c1cc2c(C(F)(F)F)cc(-c3ccccc3)cc2n1O", "labelClass": "inactive"}
{"compound": "CO[C@@H]1CC(OC2CCC3(C)C(CCC45CCC(C6=CC(=O)OC6)C(C)(CCC43)C5=O)C2)O[C@H](C)[C@@H]1O[C@@H]1O[C@H](CO[C@@H]2O[C@H](CO)[C@@H](O)[C@H](O)[C@H]2O)[C@@H](O)[C@H](O)[C@H]1O (stereo partly drawn)", "labelClass": "active"}
{"compound": "CCOc1ccc(Cc2nc(-c3c(C)nc4ccccn34)cs2)cc1", "labelClass": "active"}
{"compound": "C=C1C(=O)OC2CC(C)C(CCC(C)O)=CCC12 (stereo not drawn)", "labelClass": "inactive"}
{"compound": "COc1ccc(CCO[C@@H]2O[C@H](CO[C@H]3OC[C@](O)(CO)[C@H]3O)[C@@H](OC(=O)/C=C/c3ccc(O)c(O)c3)[C@H](O[C@@H]3O[C@@H](C)[C@H](O)[C@@H](O)[C@H]3O)[C@H]2O)cc1OC", "labelClass": "inactive"}
{"compound": "CN(C)CCOc1cc(NS(=O)(=O)c2c(Cl)cc(C(F)(F)F)cc2Cl)ccc1Cl", "labelClass": "inactive"}
{"compound": "CCc1c(Cl)c(O)c(Cl)c(O)c1C(=O)O[C@H]1[C@H](O)[C@H](OC)[C@H](OC/C2=C\\C=C\\C[C@H](O)/C(C)=C\\[C@H](CC)[C@@H](O[C@@H]3OC(C)(C)[C@@H](OC(=O)C(C)C)[C@H](O)[C@@H]3O)/C(C)=C/C(C)=C/C[C@@H]([C@@H](C)O)OC2=O)O[C@@H]1C", "labelClass": "inactive"}
{"compound": "C=C(C)C(=O)O[C@H]1[C@H]2C(=C)C(=O)O[C@@H]2/C=C(\\CO)CC/C=C(/C=O)[C@@H]1O", "labelClass": "inactive"}
{"compound": "CN1CCN(c2ccc(Nc3cc(-c4cccc(-n5ccc6cc(C7CC7)cc(F)c6c5=O)c4CO)cn(C)c3=O)nc2)CC1", "labelClass": "inactive"}
{"compound": "CC1(C)CC[C@]2(C(=O)O[C@@H]3O[C@H](CO)[C@@H](O)[C@H](O)[C@H]3O)CC[C@]3(C)C(=CCC4[C@@]5(C)CC[C@H](O[C@@H]6O[C@H](C(=O)O)[C@H](O)[C@H](O)[C@H]6O)C(C)(C)C5CC[C@]43C)[C@@H]2C1 (stereo partly drawn)", "labelClass": "inactive"}
{"compound": "C/C(=C\\CCC(C)C1=CCC2(C)OC3=C(CC12)C(=O)C(O)CC3)CO (stereo not drawn)", "labelClass": "inactive"}
{"compound": "CC(=O)OC1CC(C)C2(CCC3(CC(=O)OC3O)O2)C2(C)CCCC(C)(C)C12 (stereo not drawn)", "labelClass": "inactive"}
{"compound": "Cc1c(OCc2cccc(-c3ccc(C(=O)O)cc3)c2)cc2c(c1C)C(=O)C(C1CCCC1)C2 (stereo not drawn)", "labelClass": "inactive"}
{"compound": "O=c1cc(NCCCN[C@@H]2CCOc3c(Br)cc(Br)cc32)[nH]c2ccsc12", "labelClass": "inactive"}
{"compound": "Cc1cc(C)c(S(=O)(=O)n2cc(C)cc2C)c(C)c1", "labelClass": "inactive"}
{"compound": "CCC(C)c1ccc(NC(=O)Cn2cnc3c2c(=O)n(C)c(=O)n3C)cc1 (stereo not drawn)", "labelClass": "inactive"}
{"compound": "O=c1[nH]c2ccccc2n1CCN1CCN(c2cccc(C(F)(F)F)c2)CC1", "labelClass": "inactive"}
{"compound": "COc1cc(CN(CCN)C(=O)c2cccs2)ccc1OCc1ccccc1", "labelClass": "inactive"}
{"compound": "COc1cc2c(c(OC)c1CC=C(C)C)C[C@H](c1ccc(O)c(CC=C(C)C)c1O)CO2", "labelClass": "inactive"}
{"compound": "Cc1ccc(F)cc1S(=O)(=O)N[C@@H]1CCN(Cc2ccc(OC(C)C)cc2)C1", "labelClass": "inactive"}
{"compound": "O=C(NC[C@H](O)CN1CCc2ccccc2C1)c1ccnc(NC2CCC2)c1", "labelClass": "inactive"}
{"compound": "CCC/C=C/C=C/C1CC(O)C2(O)C(=O)OCC12 (stereo not drawn)", "labelClass": "inactive"}
{"compound": "CN(C)CCC(CSc1ccccc1)Nc1ccc(S(=O)(=O)NC(=O)c2ccc(N3CCN(Cc4ccccc4-c4ccc(Cl)cc4)CC3)cc2)cc1[N+](=O)[O-] (stereo not drawn)", "labelClass": "inactive"}
{"compound": "COc1cc2ncnc(Oc3ccc(CC(=O)Nc4cnn(C(C)C)c4)cc3)c2cc1OC", "labelClass": "inactive"}
{"compound": "C=CC(=O)N1CCN(C(=O)CNc2cc(-c3ccccc3Cl)c(Cl)cc2OC)CC1", "labelClass": "inactive"}
{"compound": "COC1C(OC(=O)/C=C/C=C/C=C/C=C/C(=O)O)CCC2(CO2)C1C1(C)OC1CC=C(C)C (stereo not drawn)", "labelClass": "inactive"}
{"compound": "CC(C)(C)Oc1ccc(OCC2Cc3ccccc3CN2C(=O)c2cccc3ccccc23)cc1 (stereo not drawn)", "labelClass": "inactive"}
{"compound": "C[C@@H](NC(=O)[C@H](O)c1cc(F)cc(F)c1)C(=O)N[C@@H]1C(=O)N(C)c2ccccc2-c2ccccc21", "labelClass": "inactive"}
{"compound": "CCCCCc1ccc(/C=C/C(=O)Nc2cc(Cl)ccc2C(=O)O)cc1", "labelClass": "inactive"}
